- System: NCI-H522 lung
- assay-summary: NCI tumour cell line growth inhibition, 48 h
This listing pairs compounds with measured TGI.

Some entries whose results are on file:
>>> experimental_value("CCO/C=C1\\SC(=S)N(c2ccc(OCC)cc2)C1=O")
"> 100 µM"
>>> experimental_value("COc1ccccc1Oc1nccc(-c2c(-c3ccc(F)cc3)ncn2C2CCNCC2)n1")
"> 25 µM"
>>> experimental_value("N#CC(C#N)=C/C=C(\\Sc1ccc(Cl)cc1)c1ccc(F)cc1")
"> 47.6 µM"
>>> experimental_value("[O]=[V]([OH])([OH])[OH]")
"> 100 µM"
>>> experimental_value("Nc1nccc(-c2c(-c3ccc(F)cc3)nn3cc(C(F)(F)F)ccc23)n1")
"> 25 µM"
>>> experimental_value("C=CCNC(=O)C(C)C1CCC2(C)C=CC(=O)C(C)=C2C1O (stereo not given)")
"> 100 µM"
>>> experimental_value("COc1ccc(OC)c2sc(N3C(=O)/C(=C/c4cccc(Oc5ccccc5)c4)N=C3c3ccccc3)nc12")
"> 100 µM"
>>> experimental_value("CCOC(=O)c1c2c(n(-c3ccc(C)cc3)c1C)-c1ccccc1C(=O)C2(C(=O)OCC)C(=O)OCC")
"79.9 µM"

Given "C=C(CN1CCc2[nH]c3ccc(F)cc3c2C1)c1ccc(C(=O)Nc2ccccc2N)cc1" , state its recorded TGI.
1.35 µM

// next record COc1ccc2nc3c(c(N)c2c1)C1CCC3C1(C)C (stereo not given)
> 100 µM

// next record NC1=NC2(COC(c3ccccc3)(c3ccccc3)c3ccccc3)OC(COC(c3ccccc3)(c3ccccc3)c3ccccc3)C(O)C2O1 (stereo not given)
> 100 µM

// next record "NNc1nnc(CCCCCCCCc2nnc(NN)n2N)n1N"
> 100 µM

// next record "C1CCC(N=C2N(C3CCCCC3)C(=NC3CCCCC3)N2C2CCCCC2)CC1"
> 100 µM

// next record "Cc1nc2ccccc2c(=O)n1/N=C(\N=Nc1ccccc1Cl)c1ccccc1Cl"
98.4 µM

// next record "N#Cc1ccccc1OCCOc1ccccc1C#N"
> 100 µM

// next record "O=C(CCc1cc(O)cc(O)c1)NCCc1cc(O)cc(OCc2ccccc2)c1"
> 100 µM

// next record "COc1cc2nc(Cl)nc(NS(=O)(=O)c3cc4ccccc4s3)c2cc1OC"
74.6 µM

// next record CC(=O)Oc1ccc(C2=Cc3ccc(OC(C)=O)cc3OC2C)cc1 (stereo not given)
23.1 µM

// next record C[C@@H]1CC[C@]2(C)C3(C)CC[C@]2(OC3=O)[C@@]12CC(c1ccoc1)OC2=O (stereo not given in full)
4.46 µM

// next record "CC(=O)Oc1c(C(=O)[O-])cc(C(C)C)cc1C(C)C.CC(=O)Oc1c(C(=O)[O-])cc(C(C)C)cc1C(C)C.CC(=O)Oc1c(C(=O)[O-])cc(C(C)C)cc1C(C)C.CC(=O)Oc1c(C(=O)[O-])cc(C(C)C)cc1C(C)C.[Cu+2].[Cu+2]"
33.3 µM

// next record "COc1ccc(-c2c(C3=NCCCN3)nnn2-c2ccccc2)cc1"
> 100 µM

// next record "O=C1c2ccccc2C(=O)c2[nH]cnc21"
> 100 µM

// next record COc1cc(C2c3cc4c(cc3OC(NN)C2C)OCO4)cc(OC)c1O (stereo not given)
42.2 µM

// next record "CCCCCCCCCCCC[C@@H](O)[C@H]1CC[C@H]([C@H](O)CC[C@H](O)[C@@H]2CC[C@@H](CCCCCCCC3=C[C@H](C)OC3=O)O2)O1"
> 50 µM
